Test summary: Inhibition of yeast alpha-glucosidase using p-nitrophenyl-alpha-d-glucopyranoside as substrate preincubated for 10 mins followed by substrate addition measured after 30 mins
Design: species or system Saccharomyces cerevisiae
Quantity kind: IC50

Recorded IC50, per entry:
{"Structure smiles string": "COc1ccc(-n2c(-c3cn(-c4ccccc4)nc3-c3cc4ccccc4oc3=O)nc(-c3ccccc3)c2-c2ccccc2)cc1", "Result": "2.5 to 46 µM"}
{"Structure smiles string": "Cc1cc2nc(-c3ccc(C(=O)N/N=C/c4cc(O)c(O)c(O)c4)cc3)[nH]c2cc1C", "Result": "8.4 µM"}
{"Structure smiles string": "Cc1cc2nc(-c3ccc(C(=O)N/N=C/c4cccc(O)c4)cc3)[nH]c2cc1C", "Result": "8.4 to 179 µM"}
{"Structure smiles string": "Cc1cc2nc(-c3ccc(C(=O)N/N=C/c4ccc(O)cc4)cc3)[nH]c2cc1C", "Result": "8.4 to 179 µM"}

Consider the additional molecule presented here.
Qu. Find the recorded IC50 belonging to Cc1cc2nc(-c3ccc(C(=O)NNC(=S)Nc4ccc(Cl)c(Cl)c4)cc3)[nH]c2cc1C and report it.
Ans. 35 to 297 µM

----------
System: Alpha glucosidase (Homo sapiens, UniProt O43451+P10253+P14410+Q2M2H8)
Test summary: Inhibition of alpha-glucosidase (unknown origin) using p-nitrophenyl-alpha-d-glucopyranoside as substrate preincubated for 5 mins followed by substrate addition measured after 5 mins
Type: protein assay
Quantity kind: IC50

{"Structure smiles string": "O=C(N/N=C/c1ccncc1)c1cc2ccccc2oc1=O", "System": "Alpha glucosidase (Homo sapiens, UniProt O43451+P10253+P14410+Q2M2H8)", "IC50": "1100 to 36000 nM"}
{"Structure smiles string": "O=C(N/N=C/c1ccccn1)c1cc2ccccc2oc1=O", "System": "Alpha glucosidase (Homo sapiens, UniProt O43451+P10253+P14410+Q2M2H8)", "IC50": "1100 to 36000 nM"}
{"Structure smiles string": "COc1ccc(Br)cc1/C=N/c1nnc(-c2cccc([N+](=O)[O-])c2)s1", "System": "Alpha glucosidase (Homo sapiens, UniProt O43451+P10253+P14410+Q2M2H8)", "IC50": "2300 to 25000 nM"}
{"Structure smiles string": "Oc1ccc(/C=N/c2nnc(-c3ccc(Cl)cc3)s2)cc1", "System": "Alpha glucosidase (Homo sapiens, UniProt O43451+P10253+P14410+Q2M2H8)", "IC50": "2300 nM"}
{"Structure smiles string": "O=[N+]([O-])c1ccc(/C=N/c2nnc(-c3ccc(Cl)cc3)s2)cc1", "System": "Alpha glucosidase (Homo sapiens, UniProt O43451+P10253+P14410+Q2M2H8)", "IC50": "2300 to 25000 nM"}

Qu. Fill in the recorded IC50 for this molecule, with Alpha glucosidase (Homo sapiens, UniProt O43451+P10253+P14410+Q2M2H8) as test system: Cc1ccc(/C=N/NC(=O)c2cc3ccccc3oc2=O)cc1
Ans. 1100 to 36000 nM

Qu. Fill in the recorded IC50 for this molecule, with Alpha glucosidase (Homo sapiens, UniProt O43451+P10253+P14410+Q2M2H8) as test system: COc1ccc(Br)cc1-c1nnc(N)s1
Ans. 2300 to 38000 nM

Qu. Fill in the recorded IC50 for this molecule, with Alpha glucosidase (Homo sapiens, UniProt O43451+P10253+P14410+Q2M2H8) as test system: Nc1nnc(-c2ccc(Cl)cc2Cl)s1
Ans. 2300 to 38000 nM

Qu. Fill in the recorded IC50 for this molecule, with Alpha glucosidase (Homo sapiens, UniProt O43451+P10253+P14410+Q2M2H8) as test system: Cc1cccc(/C=N/NC(=O)c2cc3ccccc3oc2=O)c1
Ans. 1100 to 36000 nM

Qu. Fill in the recorded IC50 for this molecule, with Alpha glucosidase (Homo sapiens, UniProt O43451+P10253+P14410+Q2M2H8) as test system: O=C(N/N=C/c1ccccc1[N+](=O)[O-])c1cc2ccccc2oc1=O
Ans. 1100 to 36000 nM

Qu. Fill in the recorded IC50 for this molecule, with Alpha glucosidase (Homo sapiens, UniProt O43451+P10253+P14410+Q2M2H8) as test system: Clc1ccc(-c2nnc(/N=C/c3ccc(Cl)cc3Cl)s2)cc1
Ans. 2300 to 25000 nM

Qu. Fill in the recorded IC50 for this molecule, with Alpha glucosidase (Homo sapiens, UniProt O43451+P10253+P14410+Q2M2H8) as test system: Nc1nnc(-c2ccc(OCc3ccccc3)cc2)s1
Ans. 2300 to 38000 nM
